Test system: Streptococcus pneumoniae
Assay: In vitro minimum inhibitory concentration against penicillin resistant Streptococcus pneumoniae A28272
Assay type: functional
MEASUREMENT_NAME: MIC (µg/mL)
Lab book: enter the figure in µg/mL, no units written.

Using known records, supply MIC for CO/C(C)=C1/NC(=O)C([C@@H](C)O)NC(=O)c2csc(n2)-c2cc(O)c(-c3nc(C(=O)NC(C(N)=O)S(=O)(=O)C4C5CCN4CC5)cs3)nc2-c2csc(n2)[C@@H]2COC(=O)c3c4c5c(cccc5n3O)COC(=O)[C@@H](O[C@H]3C[C@](C)(O)[C@H](N(C)C)[C@H](C)O3)[C@@H](OC4)[C@H](NC(=O)c3csc1n3)c1nc(cs1)C(=O)N2 (stereo partly specified) 0.06
